Entries annotated with measured koff
# TESTED TARGET: T1, cynomolgus soluble urokinase plasminogen activator receptor (cynomolgus suPAR) (cynomolgus, UniProt Q9GK78 23-303, limits assumed)
# T1 construct: also called cynomolgus uPAR; cynoPLAUR-His
# T1 sequence (Q9GK78 23-303 limits assumed): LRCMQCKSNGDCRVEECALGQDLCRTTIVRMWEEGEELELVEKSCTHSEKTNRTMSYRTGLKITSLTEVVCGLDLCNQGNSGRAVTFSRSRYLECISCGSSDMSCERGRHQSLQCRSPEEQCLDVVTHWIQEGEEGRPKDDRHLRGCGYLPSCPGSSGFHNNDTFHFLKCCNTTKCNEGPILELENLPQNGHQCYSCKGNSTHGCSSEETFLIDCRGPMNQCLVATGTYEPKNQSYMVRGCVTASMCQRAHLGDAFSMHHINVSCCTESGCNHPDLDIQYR
# MEASUREMENT NOTES: off-rate screen of scFv clones (kdis), Octet BLI
ENDPOINT LABEL: koff (s⁻¹)

BINDER | QUANTITY UNIT | QUANTITATIVE RESULT
suPAR_DB04_E12 (scFv, V domains shown, scFv clone from phage display) VH: QVQLVQSGAEVKKPGASVKVSCKASGYTFTTYYMHWVRQAPGQGLEWMGWIDPENGSTIYDQKFQGRVTMTRDTSTSTVYMELSSLRSEDTAVYYCARGYDVDWFVYWGQGTLVTVSS VL: DIQMTQSPSSLSASVGDRVTITCSASQSVSYMYWYQQKPGKAPKLLIYRTSNLASGVPSRFSGSGSGTDFTLTISSLQPEDFATYYCQQYHSYPPTFGGGTKVEIK | s⁻¹ | 8.15e-05
suPAR_DB04_C07 (scFv, V domains shown, scFv clone from phage display) VH: QVQLVQSGAEVKKPGASVKVSCKASGYTFTSYYMHWVRQAPGQGLEWMGWIDHSNGNTIYDQKFQGRVTMTRDTSTSTVYMELSSLRSEDTAVYYCARGDDVDWFVYWGQGTLVTVSS VL: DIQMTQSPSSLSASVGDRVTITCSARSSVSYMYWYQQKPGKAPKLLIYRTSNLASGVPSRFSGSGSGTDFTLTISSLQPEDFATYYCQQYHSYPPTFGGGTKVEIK | s⁻¹ | 0.000249

Ref: patent US20250215104A1
